Values compiled from patent US20240158385A1.

# Assay Target: human KCNK13 (Homo sapiens)
# Construct: expressed in transfected cells
# Sequence (Q9HB14 whole entry): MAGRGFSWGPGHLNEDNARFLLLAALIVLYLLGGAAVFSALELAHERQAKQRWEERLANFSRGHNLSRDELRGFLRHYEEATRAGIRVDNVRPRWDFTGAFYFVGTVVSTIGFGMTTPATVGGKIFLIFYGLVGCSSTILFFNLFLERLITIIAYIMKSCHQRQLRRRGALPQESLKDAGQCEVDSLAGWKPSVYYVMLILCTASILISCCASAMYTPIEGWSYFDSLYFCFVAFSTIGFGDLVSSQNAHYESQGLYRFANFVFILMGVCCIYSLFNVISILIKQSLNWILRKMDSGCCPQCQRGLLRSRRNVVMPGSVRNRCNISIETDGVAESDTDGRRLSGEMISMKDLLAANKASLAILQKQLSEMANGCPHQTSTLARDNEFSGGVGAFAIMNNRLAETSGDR
# Test Protocol: KCNK13 antagonist activity, thallium (Tl+) flux FLIPR assay
# Format: cell-based
# Reported Conditions: HEK 293 cells stably expressing human KCNK13; Tl+ sensitive dye, FLIPR; compounds 15 minutes prior to thallium sulfate; 10 point half log curves from 10 PM; read-out: hKCNK13 IC50
pIC50: −log10 of the molar value.
Measurement Name: pIC50

Guide cases for pIC50, answers given:
- Nc1nonc1-c1nc2cc(F)cnc2n1Cc1cncnc1 [Example 12]: > 6.70
- C=Cc1nsnc1-c1nc2ccccc2n1Cc1cccnc1 [Example 89]: > 7.30
- Nc1nonc1-c1nc2cncc(F)c2n1Cc1cccnn1 (single isomer, unassigned) [Example 187]: > 6.30
- Nc1nonc1-c1nc2cc(F)cc(F)c2n1Cc1cccnn1 [Example 141]: > 7.00
- Nc1nonc1-c1nc2cccc(F)c2n1Cc1ccnnc1 (single isomer, unassigned) [Example 132]: > 7.30

Take each entry in turn and give its pIC50.
1. Cc1nonc1-c1nc2c(F)cccc2n1Cc1cnc(C#N)nc1 [Example 45]
2. [2H]C([2H])(c1cccnc1)n1c(-c2nonc2C)nc2c(F)cccc21 (single isomer, unassigned) [Example 30]
3. Cc1nonc1-c1nc2cccnc2n1Cc1ccc(C#N)nc1 [Example 50]

1: > 7.00; 2: > 7.30; 3: > 7.00
